- system: UniProt:A0A024AXB9
- Sequence (A0A024AXB9 whole entry): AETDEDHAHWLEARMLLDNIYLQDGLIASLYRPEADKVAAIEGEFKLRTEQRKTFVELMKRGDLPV
- assay details: Functional biochemical assay to identify treatments for viral infectious disease that targets Zika NS2B-NS3 protease. Utilizing a direct enzyme activity measurement method, reading the fluorescence intensity is used to characterize the relative potency of inhibitors as IC50.
- Parameters: species or system PRVABC59
For each of the compounds below, state its pIC50.
Please note pIC50 is a logarithmic value: minus log10 of concentration in mol/L. Answer with that number alone.

Inquiry: What pIC50 value was documented for this compound, `O=C(Nc1ccc2c(c1)CNC2)c1cccc2nc(C(F)(F)F)[nH]c12` ?
Reply text: 5.40

Inquiry: Which pIC50 reading was recorded for the compound `CC1(C)NCc2cc(NC(=O)c3cc(F)cc4[nH]ncc34)ccc21` ?
Reply text: 5.04

Inquiry: Recorded pIC50 for `NCCc1cc(Cl)cc(C(=O)Nc2cccc(CN)c2)c1` , please?
Reply text: 6.48

Inquiry: // returns reported pIC50 for input `NCc1ccc(I)c(NC(=O)c2cc(Cl)cc(NC(=O)OCc3ccccc3)c2)c1`
Reply text: 4.30

Inquiry: # get_value(readout='pIC50', item= `Cc1cc(-c2ccc([C@@H](NC(=O)OCc3ccccc3)C(=O)Nc3cccc(CN)c3)cc2)cs1` )
Reply text: 5.40

Inquiry: Name the reported pIC50 value associated with the compound `CCOc1cccc(-c2ccc(NS(=O)(=O)c3cc(F)c(Cl)cc3C(=O)O)cc2)c1`
Reply text: 4.66

Inquiry: Could you tell me which pIC50 is on file for `COc1cc(C(=O)O)c(S(=O)(=O)Nc2ccc(Oc3ccccc3Cl)cc2)cc1F` ?
Reply text: 4.04

Inquiry: Suppose we examine the compound `N[C@H]1Cc2ccc(NC(=O)c3cc(Cl)cc4[nH]ncc34)cc2C1` ; what pIC50 value has been reported?
Reply text: 6.31

Inquiry: Endpoint output: pIC50 of `CCNC(=O)Nc1cc(Cl)cc(C(=O)Nc2cccc(CN)c2)c1` . Value?
Reply text: 6.18

Inquiry: For the compound shown here, `C=C(C)c1cccc([C@@H](NC(=O)OCc2ccccc2)C(=O)Nc2cccc(CN)c2)c1` , give the reported pIC50.
Reply text: 5.02

Inquiry: What value of pIC50 has been reported for the following compound? `COCc1ccccc1Nc1ccc(S(=O)(=O)Nc2ccc(Cl)cc2C(=O)O)cn1`
Reply text: 4.01

Inquiry: Using the record for `NCc1cccc(NC(=O)c2cc3c(c(NC(=O)OCc4ccccc4)c2)OCC3)c1` , report its pIC50.
Reply text: 4.11

Inquiry: May I ask what pIC50 has been recorded for `NCc1cccc(CNC(=O)c2cc(Cl)cc(NC(=O)OCc3ccccc3)c2)c1` ?
Reply text: 4.29

Inquiry: So what's the measured pIC50 for this one? `Cc1ccc(COc2ccc(S(=O)(=O)Nc3ccc(Cl)cc3C(=O)O)cc2)cc1`
Reply text: 4.76

Inquiry: Reported pIC50 for `O=C(Nc1cc(Cl)cc(C(=O)Nc2ccc3c(c2)CCNC3)c1)OCc1ccccc1` : what is it?
Reply text: 5.83

Inquiry: So what's the measured pIC50 for this one? `CCc1ccc(S(=O)(=O)N[C@@H](C(=O)Nc2cccc(CN)c2)c2ccc(OCc3ccccc3)cc2)cc1`
Reply text: 4.28

Inquiry: Which pIC50 reading was recorded for the compound `C[C@@]1(c2cc(Cl)cc(NC(=O)OCc3ccccc3)c2)C[C@H]1c1cccc(CN)c1` ?
Reply text: 4.71

Inquiry: Could you tell me which pIC50 is on file for `C=C(C)c1ccc(Cl)cc1[C@H](Nc1ccc2c(c1)CNC2)C(=O)NCC(F)F` ?
Reply text: 6.53

Inquiry: Please report the recorded pIC50 for `Cc1cc(CN)cc(C)c1NS(=O)(=O)c1ccc(Oc2ccccc2Cl)cc1` .
Reply text: 4.09
